target: HIPK4 (human) (UniProt Q8NE63); experiment: KINOMEscan competition binding; conditions: compound 10.0 µM
Sequence (Q8NE63 whole entry, looked up): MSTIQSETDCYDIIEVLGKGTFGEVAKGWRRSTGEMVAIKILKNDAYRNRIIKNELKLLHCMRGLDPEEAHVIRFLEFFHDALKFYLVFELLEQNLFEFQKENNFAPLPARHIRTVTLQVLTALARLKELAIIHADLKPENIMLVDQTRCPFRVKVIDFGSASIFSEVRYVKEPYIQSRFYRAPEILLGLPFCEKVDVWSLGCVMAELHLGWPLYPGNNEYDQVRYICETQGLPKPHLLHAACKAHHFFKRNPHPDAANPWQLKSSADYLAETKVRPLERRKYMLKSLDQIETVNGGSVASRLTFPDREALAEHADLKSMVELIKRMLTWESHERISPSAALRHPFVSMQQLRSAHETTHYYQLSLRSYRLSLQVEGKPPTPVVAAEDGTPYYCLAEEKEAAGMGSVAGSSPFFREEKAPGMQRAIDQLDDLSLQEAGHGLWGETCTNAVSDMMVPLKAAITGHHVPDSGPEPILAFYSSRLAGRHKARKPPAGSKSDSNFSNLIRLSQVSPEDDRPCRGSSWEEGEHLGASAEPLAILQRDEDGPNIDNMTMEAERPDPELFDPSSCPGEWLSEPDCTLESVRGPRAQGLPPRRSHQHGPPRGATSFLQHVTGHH
# reported kinase still bound, per cent of control; entries follow
Numeric answer only, unit % assumed.

Examples from the recorded data:
C=CC(=O)Nc1cc(NC(=O)c2ccc(C)c(NC(=O)c3ccno3)c2)cc(C(F)(F)F)c1 : 100
O=C(NOC[C@H](O)CO)c1ccc(F)c(F)c1Nc1ccc(I)cc1F : 100
N#Cc1c(NC(=O)c2cccc3ccccc23)sc2c1CCCC2 : 100
Nc1ccc(-c2ccc3ncc4ccc(=O)n(-c5cccc(C(F)(F)F)c5)c4c3c2)cn1 : 44
Cc1ccc2nc(NCCN)c3ncc(C)n3c2c1 : 41
CN(C)C/C=C/C(=O)Nc1cccc(Nc2ncc3c(n2)N(C)c2ccccc2C(=O)N3C)c1 : 76

Query: For the compound shown here, CCOc1cc2ncc(C#N)c(Nc3ccc(OCc4ccccn4)c(Cl)c3)c2cc1NC(=O)/C=C/CN(C)C , give the reported kinase still bound, per cent of control.
Result: 42

====

target: CDK4 CCND3 (human) (UniProt P11802+P30281); assay: KINOMEscan competition binding; conditions: compound 10.0 µM
Sequence (P11802 whole entry, looked up): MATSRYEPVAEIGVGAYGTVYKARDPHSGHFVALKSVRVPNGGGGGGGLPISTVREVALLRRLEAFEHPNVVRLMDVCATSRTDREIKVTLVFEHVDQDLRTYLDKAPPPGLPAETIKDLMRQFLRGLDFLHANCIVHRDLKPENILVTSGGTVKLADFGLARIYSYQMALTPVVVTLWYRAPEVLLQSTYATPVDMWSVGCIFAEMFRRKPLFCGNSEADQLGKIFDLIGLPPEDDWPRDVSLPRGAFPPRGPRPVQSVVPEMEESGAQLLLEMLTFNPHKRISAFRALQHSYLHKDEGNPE
Sequence (P30281 whole entry, looked up): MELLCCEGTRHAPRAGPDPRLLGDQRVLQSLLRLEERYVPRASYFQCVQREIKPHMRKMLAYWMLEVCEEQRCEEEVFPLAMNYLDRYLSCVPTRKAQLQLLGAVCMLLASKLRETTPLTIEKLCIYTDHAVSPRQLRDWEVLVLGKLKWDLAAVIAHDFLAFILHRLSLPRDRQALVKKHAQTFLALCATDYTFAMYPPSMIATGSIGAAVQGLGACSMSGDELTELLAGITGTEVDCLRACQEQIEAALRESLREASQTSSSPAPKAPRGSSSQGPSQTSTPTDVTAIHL
# reported kinase still bound, per cent of control; entries follow
Answers without a unit are incomplete; give the number and then its unit.

Query: For the compound shown here, N#Cc1c(NC(=O)c2cccc3ccccc23)sc2c1CCCC2 , give the reported kinase still bound, per cent of control.
Result: 84%

Query: Moving on to CCOc1cc2ncc(C#N)c(Nc3ccc(OCc4ccccn4)c(Cl)c3)c2cc1NC(=O)/C=C/CN(C)C
Result: 78%

Query: Moving on to CN(C)C/C=C/C(=O)Nc1cccc(Nc2ncc3c(n2)N(C)c2ccccc2C(=O)N3C)c1
Result: 85%

====

system: EGFR (human), P00533 [P753S; 747-752 del]; assay: KINOMEscan competition binding; settings: compound 10.0 µM
ASSAY READOUT: kinase still bound, per cent of control
Answers without a unit are incomplete; give the number and then its unit.

COc1cc(C(=O)NC2CCN(C)CC2)ccc1Nc1ncc2c(n1)N(C1CCCC1)CCC(=O)N2C(C)C : 100%
CCN1CCN(C(=O)Cc2ccc(Nc3ncc(F)c(Nc4ccc(C(=O)Nc5ccccc5Cl)cc4)n3)cc2)CC1 : 38%

Query: For the molecule shown here, CCN1CCN(Cc2ccc(NC(=O)c3ccc(C)c(/C=C/c4cnc5[nH]ccc5c4OC)c3)cc2C(F)(F)F)CC1 , give the reported kinase still bound, per cent of control.
Result: 0.55%

Query: Moving on to COc1cc2c(Nc3ccc(NC(=O)c4ccccc4)cc3)ncnc2cc1OCCCN1CCOCC1
Result: 41%

Query: Moving on to CCN(CC)CCCCNc1ncc2c(n1)N(C)C(=O)N(c1c(Cl)c(OC)cc(OC)c1Cl)C2
Result: 100%

====

# reported kinase still bound, per cent of control; entries follow
target: TIE1 (human) (UniProt P35590); assay: KINOMEscan competition binding; conditions: compound 10.0 µM
Sequence (P35590 whole entry, looked up): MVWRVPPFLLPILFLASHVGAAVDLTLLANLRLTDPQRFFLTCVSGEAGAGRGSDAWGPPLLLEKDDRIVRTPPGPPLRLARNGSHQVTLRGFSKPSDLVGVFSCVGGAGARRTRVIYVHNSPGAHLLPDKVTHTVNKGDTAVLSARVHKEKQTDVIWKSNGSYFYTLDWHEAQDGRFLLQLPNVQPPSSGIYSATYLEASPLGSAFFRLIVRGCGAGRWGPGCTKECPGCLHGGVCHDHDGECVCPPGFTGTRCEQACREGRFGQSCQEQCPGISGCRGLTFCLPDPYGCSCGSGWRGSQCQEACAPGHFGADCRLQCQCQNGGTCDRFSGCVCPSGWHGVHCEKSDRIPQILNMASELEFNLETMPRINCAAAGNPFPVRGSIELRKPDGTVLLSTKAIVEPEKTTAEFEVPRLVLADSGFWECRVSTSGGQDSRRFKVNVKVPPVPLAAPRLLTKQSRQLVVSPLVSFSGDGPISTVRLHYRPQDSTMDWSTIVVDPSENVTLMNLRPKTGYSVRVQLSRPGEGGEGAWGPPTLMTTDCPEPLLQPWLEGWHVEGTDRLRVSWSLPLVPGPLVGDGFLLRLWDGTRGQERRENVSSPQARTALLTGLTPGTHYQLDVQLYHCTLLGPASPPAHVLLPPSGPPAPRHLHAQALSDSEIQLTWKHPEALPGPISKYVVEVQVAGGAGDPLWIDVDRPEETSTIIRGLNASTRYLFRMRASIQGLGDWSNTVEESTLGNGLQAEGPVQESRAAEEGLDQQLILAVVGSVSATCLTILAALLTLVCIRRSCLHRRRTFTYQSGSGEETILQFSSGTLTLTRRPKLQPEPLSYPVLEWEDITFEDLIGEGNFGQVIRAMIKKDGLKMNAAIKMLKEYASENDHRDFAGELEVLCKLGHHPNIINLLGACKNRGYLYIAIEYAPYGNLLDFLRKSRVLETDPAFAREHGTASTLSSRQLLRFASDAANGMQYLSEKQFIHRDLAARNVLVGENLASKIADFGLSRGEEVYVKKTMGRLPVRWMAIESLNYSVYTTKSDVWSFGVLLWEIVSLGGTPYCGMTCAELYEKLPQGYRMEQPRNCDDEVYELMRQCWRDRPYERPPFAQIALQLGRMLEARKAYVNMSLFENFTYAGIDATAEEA
Numeric answer only, unit % assumed.

Examples from the recorded data:
CN(C)C/C=C/C(=O)Nc1cccc(Nc2ncc3c(n2)N(C)c2ccccc2C(=O)N3C)c1 : 5.4
Cc1ccc(C(=O)Nc2cccc(C(F)(F)F)c2)cc1Nc1cncc(C(N)=O)c1 : 100
Cn1c(=O)n(-c2ccc(C(C)(C)C#N)cc2)c2c3cc(-c4cnc5ccccc5c4)ccc3ncc21 : 100

Query: For the molecule shown here, Nc1ccc(-c2ccc3ncc4ccc(=O)n(-c5cccc(C(F)(F)F)c5)c4c3c2)cn1 , give the reported kinase still bound, per cent of control.
Result: 100

Query: Moving on to OCCCNc1cc(-c2ccnc(Nc3cccc(Cl)c3)n2)ccn1
Result: 100

Query: Moving on to Cc1ccc2nc(NCCN)c3ncc(C)n3c2c1
Result: 100

Query: Moving on to CCC(=O)N1CCN(c2ccc(-n3c(=O)ccc4cnc5ccc(-c6cnc7ccccc7c6)cc5c43)cc2C(F)(F)F)CC1
Result: 100

Query: Moving on to COc1cc(C(=O)NC2CCN(C)CC2)ccc1Nc1ncc2c(n1)N(C1CCCC1)C(C)CC(=O)N2C (configuration not stated)
Result: 100

Query: Moving on to CCN1CCN(Cc2ccc(Nc3ncc4c(n3)N(C)c3ccccc3C(=O)N4C)cc2C(F)(F)F)CC1
Result: 22

====

molecular target: MST1R (human); assay: KINOMEscan competition binding; settings: compound 10.0 µM
# reported kinase still bound, per cent of control; entries follow
Numeric answer only, unit % assumed.

Query: For the molecule shown here, C[C@@H](Oc1cc(-n2cnc3ccc(CN4CCN(C)CC4)cc32)sc1C(N)=O)c1ccccc1C(F)(F)F , give the reported kinase still bound, per cent of control.
Result: 100

Query: Moving on to C=CC(=O)Nc1cccc(Oc2nc(Nc3ccc(N4CCN(C)CC4)cc3OC)ncc2Cl)c1
Result: 100

Query: Moving on to O=C(NOC[C@H](O)CO)c1ccc(F)c(F)c1Nc1ccc(I)cc1F
Result: 78

Query: Moving on to COc1cc(C(=O)NC2CCN(C)CC2)ccc1Nc1ncc2c(n1)N(C1CCCC1)CCC(=O)N2C(C)C
Result: 100

Query: Moving on to N#Cc1c(NC(=O)c2cccc3ccccc23)sc2c1CCCC2
Result: 95

Query: Moving on to CCCS(=O)(=O)Nc1ccc(F)c(C(=O)c2c[nH]c3ncc(-c4ccc(Cl)cc4)cc23)c1F
Result: 100

Query: Moving on to CN(C)C/C=C/C(=O)Nc1cccc(Nc2ncc3c(n2)N(C)c2ccccc2C(=O)N3C)c1
Result: 93

Query: Moving on to C=CC(=O)Nc1cccc(Nc2nc(N[C@H]3CC[C@H](N(C)C)CC3)nc3c2ncn3C(C)C)c1
Result: 100

Query: Moving on to OCCCNc1cc(-c2ccnc(Nc3cccc(Cl)c3)n2)ccn1
Result: 100

====

target: RIOK3 (human); test: KINOMEscan competition binding; conditions: compound 10.0 µM
# reported kinase still bound, per cent of control; entries follow
Numeric answer only, unit % assumed.

Examples from the recorded data:
Cc1ccc2nc(NCCN)c3ncc(C)n3c2c1 : 100
O=C(O)c1ccc(Nc2ncc3c(n2)-c2ccc(Cl)cc2C(c2c(F)cccc2F)=NC3)cc1 : 100
Cc1ccc(NC(=O)c2cccc(C(C)(C)C#N)c2)cc1Nc1ccc2ncn(C)c(=O)c2c1 : 100

Query: For the compound shown here, C[C@@H](Oc1cc(-n2cnc3ccc(CN4CCN(C)CC4)cc32)sc1C(N)=O)c1ccccc1C(F)(F)F , give the reported kinase still bound, per cent of control.
Result: 6.6

Query: Moving on to CN(C)C/C=C/C(=O)Nc1cccc(Nc2ncc3c(n2)N(C)c2ccccc2C(=O)N3C)c1
Result: 16

Query: Moving on to O=C(NC1CC1)c1cccc(-c2ccc3c(NC(=O)C4CC4)n[nH]c3c2)c1
Result: 6.8

====

target: CDK14 (human); test: KINOMEscan competition binding; settings: compound 10.0 µM
# reported kinase still bound, per cent of control; entries follow
Numeric answer only, unit % assumed.

Examples from the recorded data:
Cc1ccc(C(=O)Nc2cccc(C(F)(F)F)c2)cc1Nc1cncc(C(N)=O)c1 : 100
CCOc1cc2ncc(C#N)c(Nc3ccc(OCc4ccccn4)c(Cl)c3)c2cc1NC(=O)/C=C/CN(C)C : 97

Query: # returns recorded kinase still bound, per cent of control (system: CDK14 (human)) for O=C1Nc2ccc(I)cc2/C1=C/c1cc(Br)c(O)c(Br)c1
Result: 95

Query: Moving on to C=CC(=O)Nc1cccc(Oc2nc(Nc3ccc(N4CCN(C)CC4)cc3OC)ncc2Cl)c1
Result: 100

Query: Moving on to CCCS(=O)(=O)Nc1ccc(F)c(C(=O)c2c[nH]c3ncc(-c4ccc(Cl)cc4)cc23)c1F
Result: 100

Query: Moving on to O=C(NC1CC1)c1cccc(-c2ccc3c(NC(=O)C4CC4)n[nH]c3c2)c1
Result: 46

Query: Moving on to Nc1ccc(-c2ccc3ncc4ccc(=O)n(-c5cccc(C(F)(F)F)c5)c4c3c2)cn1
Result: 97

====

test system: ABL1 (human), P00519 [E255K]; test: KINOMEscan competition binding; details: compound 10.0 µM
Sequence (P00519 whole entry E255K, looked up): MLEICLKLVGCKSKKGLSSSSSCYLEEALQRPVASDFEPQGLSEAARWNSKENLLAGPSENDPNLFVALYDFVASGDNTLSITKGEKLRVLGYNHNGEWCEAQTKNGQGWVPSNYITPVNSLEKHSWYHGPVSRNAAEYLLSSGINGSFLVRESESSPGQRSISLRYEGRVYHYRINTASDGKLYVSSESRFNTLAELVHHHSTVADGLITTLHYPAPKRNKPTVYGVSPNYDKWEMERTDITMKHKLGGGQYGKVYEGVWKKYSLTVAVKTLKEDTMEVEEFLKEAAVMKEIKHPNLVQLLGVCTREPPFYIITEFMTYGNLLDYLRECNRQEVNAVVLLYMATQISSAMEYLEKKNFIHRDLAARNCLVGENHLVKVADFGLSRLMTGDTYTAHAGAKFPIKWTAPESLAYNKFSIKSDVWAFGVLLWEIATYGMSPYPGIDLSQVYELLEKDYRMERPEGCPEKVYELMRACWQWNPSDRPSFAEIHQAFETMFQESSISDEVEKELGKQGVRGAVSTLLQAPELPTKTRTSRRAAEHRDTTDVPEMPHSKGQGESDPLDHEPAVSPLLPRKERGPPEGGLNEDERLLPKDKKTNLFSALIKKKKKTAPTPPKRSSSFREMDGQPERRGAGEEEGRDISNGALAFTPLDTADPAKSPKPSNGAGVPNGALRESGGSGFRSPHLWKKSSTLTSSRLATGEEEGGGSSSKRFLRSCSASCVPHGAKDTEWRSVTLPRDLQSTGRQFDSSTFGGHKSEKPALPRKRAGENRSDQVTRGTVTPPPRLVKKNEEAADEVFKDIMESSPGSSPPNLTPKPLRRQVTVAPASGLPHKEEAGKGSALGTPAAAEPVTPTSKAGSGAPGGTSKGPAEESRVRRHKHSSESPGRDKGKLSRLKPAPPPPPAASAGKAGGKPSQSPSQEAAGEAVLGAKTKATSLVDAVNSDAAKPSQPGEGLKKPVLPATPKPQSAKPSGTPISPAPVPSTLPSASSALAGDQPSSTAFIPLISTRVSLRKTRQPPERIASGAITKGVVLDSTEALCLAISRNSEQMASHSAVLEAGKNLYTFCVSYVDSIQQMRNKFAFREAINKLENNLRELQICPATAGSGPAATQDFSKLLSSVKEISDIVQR
# reported kinase still bound, per cent of control; entries follow
Numeric answer only, unit % assumed.

Query: For the compound shown here, O=c1[nH]c2ccccc2n1C1CCN(Cc2ccc(-c3nc4cc5[nH]cnc5cc4nc3-c3ccccc3)cc2)CC1 , give the reported kinase still bound, per cent of control.
Result: 93

Query: Moving on to CN(C)C/C=C/C(=O)Nc1ccc(C(=O)Nc2cccc(Nc3nccc(-c4cccnc4)n3)c2)cc1
Result: 29

Query: Moving on to O=C(Nc1cccc(Nc2ncc(Br)c(NCCc3cnc[nH]3)n2)c1)N1CCCC1
Result: 0.15

Query: Moving on to Cn1c(=O)n(-c2ccc(C(C)(C)C#N)cc2)c2c3cc(-c4cnc5ccccc5c4)ccc3ncc21
Result: 100

Query: Moving on to COc1cc(C(=O)N2CCC(N3CCN(C)CC3)CC2)ccc1Nc1ncc2c(n1)N(C)c1ccccc1C(=O)N2C
Result: 80

Query: Moving on to COc1cc(N2CCC(C(N)=O)CC2)ccc1Nc1nc(N)c(Cl)c(Nc2ccccc2S(=O)(=O)C(C)C)n1
Result: 100

Query: Moving on to CNC(=O)c1ccc(Nc2cc(Nc3ccccc3S(=O)(=O)C(C)C)c3cc[nH]c3n2)nc1
Result: 20

Query: Moving on to O=C(NOC[C@H](O)CO)c1ccc(F)c(F)c1Nc1ccc(I)cc1F
Result: 100

Query: Moving on to Nc1ccc(-c2ccc3ncc4ccc(=O)n(-c5cccc(C(F)(F)F)c5)c4c3c2)cn1
Result: 76
